Give protein stability index for every item shown.
B1: KCNK9 (parent)
chain: CFITLTTIGFGDYVALQTKGALQK

Variants of: B1
Test Protocol: protein stability index of a GFP-peptide fusion (GPS, HEK-293T) (PSI 1-6); higher = more stable;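 also: lentivirally expressed fusions sorted by FACS into six bins by GFP to DsRed ratio, PSI derived from sequencing read proportions per bin multiplied by bin number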
Experimental Context: c terminus: a fixed tail appended

protein stability index for `K19R` is 3.19

# protein stability index of `T4H` = 2.23

Lab note: `G9I` gave protein stability index of 2.7

variant `Y13K` , protein stability index observed: 2.24

Lab note: measured protein stability index of `T6L` was 3.01

Measured protein stability index, `L22S` : 3.93

# variant `T6S` ; its protein stability index = 3.54

Sure, the documented protein stability index for `G9Q` is 2.81

Noted for `K19P` : its protein stability index reads 4.04

Documented protein stability index of `G9L` : 3.46

The measured protein stability index associated with `Q23Y` reads 2.42

Note to self: protein stability index recorded for `Y13T` was 3.55

For this variant ( `Q23G` ), measured protein stability index is 3.46

Value of measured protein stability index for the entry `T4M` : 3.53

Item: `A15Q` | protein stability index: 2.3

The recorded protein stability index for `Q17W` is 2.58

For `V14E` the variant record lists protein stability index as 2.12

For `I3Q` the variant record lists protein stability index as 2.13

According to the records, this variant `L16V` displays protein stability index of 3.73

// `D12T` : protein stability index value = 2.49

Noted for `L16P` : its protein stability index reads 2.64

In plain terms, `G20D` has a documented protein stability index of 3.25

// sample `V14Y` , its protein stability index was 3.12

protein stability index measured on `G20P` = 2.55

Lab note: measured protein stability index of `T6F` was 2.57

protein stability index in this record for `G9N` : 2.02

The variant `I8A` showed protein stability index equal to 2.08
